Listing of entries alongside the reported IC50.
Tested on: AsPC-1 spheroids
Test: Three-dimensional spheroid growth inhibition, APH assay
Type: cell-based, human
Conditions: Homo sapiens, ASPC1; APH assay, 72 h treatment; read-out: IC50 in AsPC-1 three-dimensional spheroid model
# value in µM; strip the unit string

• Cc1ccc(Cn2cc(COc3ccc(C=NNc4ncnc5ccccc45)cc3)nn2)cc1 [Compound 8c] = 32.7

Shift focus to the following entry.
Entry CC(C)(C)c1ccc(Cn2cc(COc3ccc(C=NNc4ncnc5ccccc45)cc3)nn2)cc1 [Compound 8h] , system AsPC-1 spheroids: what IC50 was measured? 36.6

====

Test system: Mia-Paca-2 cells
Assay: SRB antiproliferative assay, monolayer culture
Type: cell-based, human
Conditions: 72 h, mean ± S.E.M.
pIC50: −log10 of the molar value.
measurement_label: pIC50

Given the entry "O=C1c2ccccc2C(=O)N1CCCn1cc(COc2ccccc2C=NNc2ncnc3ccccc23)nn1" , report its measured pIC50. < 4.00

====

IC50 by entry:
Tested on: EBC-1 cells
Assay: SRB antiproliferative assay, monolayer culture
Format: cell-based, human
Settings: Homo sapiens, EBC-1, 72 h, mean ± S.E.M.
Provide only the numeric value, understood in µM.

Take a look at these entries with their results.
- C[C@@H](Oc1cc(-c2cnn(C3CCNCC3)c2)cnc1N)c1c(Cl)ccc(F)c1Cl [Crizotinib, reference compound]: 0.006
- CC(C)(C)c1ccc(Cn2cc(COc3ccc(C=NNc4ncnc5ccccc45)cc3)nn2)cc1 [Compound 8h]: 6.1
- Cc1ccc(Cn2cc(COc3ccc(C=NNc4ncnc5ccccc45)cc3)nn2)cc1 [Compound 8c]: 19

Now look at this entry.
I'd like to know its IC50. The molecule in question is COc1cc2nccc(Oc3ccc(NC(=O)C4(C(=O)Nc5ccc(F)cc5)CC4)cc3)c2cc1OC [Cabozantinib, reference compound] 0.059

====

Test system: MKN-45 cells
Experiment: SRB antiproliferative assay, monolayer culture
Type: cell-based, human
Settings: 72 h, mean ± S.E.M.
pIC50: −log10 of the molar value.
measurement_label: pIC50

# query: pIC50 of entry "O=C1c2ccccc2C(=O)N1CCCn1cc(COc2ccccc2C=NNc2ncnc3ccccc23)nn1" < 4.00

====

Reported pIC50 is given for each of the following compounds.
Test system: EBC-1 cells
Experiment: SRB antiproliferative assay, monolayer culture
Format: cell-based, human
Details: Homo sapiens, EBC-1, 72 h, mean ± S.E.M.
pIC50: −log10 of the molar value.

* Clc1ccc(Cn2cc(COc3ccc(C=NNc4ncnc5ccccc45)cc3)nn2)cc1Cl | < 4.00
* Clc1ccc(Cn2cc(COc3ccc(C=NNc4ncnc5ccccc45)cc3)nn2)cc1 | < 4.00

# evaluate next
Would you mind telling me what pIC50 value was observed for "Brc1ccc(Cn2cc(COc3ccc(C=NNc4ncnc5ccccc45)cc3)nn2)cc1" ? < 4.00

====

measurement_label: melting point (°C)
Give the value, in units of °C, as a plain number.

# example entries with known answers
• Brc1ccc(Cn2cc(COc3ccc(C=NNc4ncnc5ccccc45)cc3)nn2)cc1 = 207.3
• C(=NNc1ncnc2ccccc12)c1ccc(OCc2cn(Cc3ccccc3)nn2)cc1 = 218.6
• Clc1ccc(Cn2cc(COc3ccc(C=NNc4ncnc5ccccc45)cc3)nn2)cc1Cl = 224.6
• O=[N+]([O-])c1ccc(Cn2cc(COc3ccc(C=NNc4ncnc5ccccc45)cc3)nn2)cc1 = 208.4
• CC(C)(C)c1ccc(Cn2cc(COc3ccc(C=NNc4ncnc5ccccc45)cc3)nn2)cc1 = 205.4

Find the recorded melting point belonging to "Fc1ccc(Cn2cc(COc3ccc(C=NNc4ncnc5ccccc45)cc3)nn2)cc1" and report it. 204.9
